Here the recorded AC50 is given for each entry.
Molecular target: Paired box protein Pax-8 (Homo sapiens, UniProt Q06710)
Sequence (Q06710 whole entry): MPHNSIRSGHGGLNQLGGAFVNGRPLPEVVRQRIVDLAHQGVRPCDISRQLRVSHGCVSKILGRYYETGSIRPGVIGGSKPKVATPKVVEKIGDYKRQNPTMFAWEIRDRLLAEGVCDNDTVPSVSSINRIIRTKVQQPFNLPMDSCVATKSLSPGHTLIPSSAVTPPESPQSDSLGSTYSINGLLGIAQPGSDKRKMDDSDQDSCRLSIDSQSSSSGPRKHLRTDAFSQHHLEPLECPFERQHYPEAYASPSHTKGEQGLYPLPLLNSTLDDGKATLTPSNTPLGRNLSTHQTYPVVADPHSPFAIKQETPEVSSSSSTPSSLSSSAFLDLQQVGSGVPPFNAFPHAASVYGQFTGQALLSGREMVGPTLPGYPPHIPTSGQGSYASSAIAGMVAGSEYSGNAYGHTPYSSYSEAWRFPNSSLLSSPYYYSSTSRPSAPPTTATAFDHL
Assay: PAX8 transcriptional activity inhibition in RMG-I – RMG-I cells, luciferase, cherry-pick, dose response (AID 687027);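 note: luciferase reporter driven by Pax8 target thyroperoxidase promoter measured by SteadyGlo luminescence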
Type: functional, cell-based
Activity calls are given as the source filed them. The rule behind the calls is not given here.

# example entries with known answers
input-smiles: Cc1cccc(-n2ncc(Cl)c(Cl)c2=O)c1
AC50: 5.11 µM (active)
//
input-smiles: C[C@@H]1CCCCO[C@H](CN(C)S(=O)(=O)c2cccs2)[C@H](C)CN([C@@H](C)CO)C(=O)c2cc(NC(=O)CCC(F)(F)F)ccc2O1
AC50: 27.6 µM (active)
//
input-smiles: N#C[C@H]1[C@H](c2ccc(C#CC3CCCC3)cc2)[C@@H](CO)N1C(=O)Nc1ccc(F)cc1
AC50: 5.59 µM (active)
//
input-smiles: COC(=O)[C@@H]1Cc2c([nH]c3ccccc23)C(C)(C)N1C(=O)CCl
AC50: 1.26 µM (active)
//
input-smiles: C[C@@H]1CN([C@@H](C)CO)C(=O)Cc2cc(NC(=O)CCCCCC(=O)Nc3ccccc3N)ccc2O[C@@H]1CN(C)Cc1ccc(C(F)(F)F)cc1
AC50: 6.87 µM (active)

Which AC50 value belongs to O=C(CCCN1C(=O)/C(=C/c2ccccc2OC(F)F)SC1=S)Nc1cccnc1 ?
7.19 µM (active)

Which AC50 value belongs to COc1ccc(S(=O)(=O)Nc2ccc3c(c2)C(=O)N([C@H](C)CO)C[C@H](C)[C@@H](CN(C)S(=O)(=O)c2ccc(Cl)cc2)OCCCC[C@H](C)O3)cc1 ?
7.7 µM (active)

Which AC50 value belongs to C[C@H]1CCCCO[C@H](CN(C)Cc2ccc(C(F)(F)F)cc2)[C@@H](C)CN([C@@H](C)CO)C(=O)c2cc(NC(=O)c3ccccc3)ccc2O1 ?
8.95 µM (active)

Which AC50 value belongs to C=C1CCc2c([nH]c3ccc(OCC(C)C)cc23)C1=O ?
6.14 µM (active)

Source listed as ChEMBL document CHEMBL1201862.
